SYSTEM_UNDER_TEST: T1R2/T1R3 (human sweet taste receptor) (Homo sapiens, UniProt Q7RTX0+Q8TE23)
Sequence (Q8TE23 20-839): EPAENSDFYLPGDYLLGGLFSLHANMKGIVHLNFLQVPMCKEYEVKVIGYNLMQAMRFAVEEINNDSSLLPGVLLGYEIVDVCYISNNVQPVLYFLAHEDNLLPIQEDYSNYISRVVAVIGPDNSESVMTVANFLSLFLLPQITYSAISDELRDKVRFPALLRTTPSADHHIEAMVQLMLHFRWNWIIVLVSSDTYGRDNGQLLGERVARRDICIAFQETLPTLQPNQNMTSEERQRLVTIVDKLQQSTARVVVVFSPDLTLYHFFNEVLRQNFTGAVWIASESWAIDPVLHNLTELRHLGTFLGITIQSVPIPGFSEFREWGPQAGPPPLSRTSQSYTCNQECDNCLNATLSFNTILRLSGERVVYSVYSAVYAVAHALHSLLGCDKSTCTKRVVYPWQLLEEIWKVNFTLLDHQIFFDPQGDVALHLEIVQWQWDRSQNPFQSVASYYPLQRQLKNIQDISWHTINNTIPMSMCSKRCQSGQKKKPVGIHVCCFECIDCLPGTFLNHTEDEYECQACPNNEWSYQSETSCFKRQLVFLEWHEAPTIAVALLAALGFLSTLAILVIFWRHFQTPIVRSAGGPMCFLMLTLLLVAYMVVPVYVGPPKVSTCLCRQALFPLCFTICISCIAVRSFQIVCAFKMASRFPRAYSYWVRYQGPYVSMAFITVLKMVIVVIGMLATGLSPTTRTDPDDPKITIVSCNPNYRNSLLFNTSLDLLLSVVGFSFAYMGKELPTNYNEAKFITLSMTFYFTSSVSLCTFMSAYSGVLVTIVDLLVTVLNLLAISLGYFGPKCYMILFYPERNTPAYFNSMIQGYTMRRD
Sequence (Q7RTX0 21-852): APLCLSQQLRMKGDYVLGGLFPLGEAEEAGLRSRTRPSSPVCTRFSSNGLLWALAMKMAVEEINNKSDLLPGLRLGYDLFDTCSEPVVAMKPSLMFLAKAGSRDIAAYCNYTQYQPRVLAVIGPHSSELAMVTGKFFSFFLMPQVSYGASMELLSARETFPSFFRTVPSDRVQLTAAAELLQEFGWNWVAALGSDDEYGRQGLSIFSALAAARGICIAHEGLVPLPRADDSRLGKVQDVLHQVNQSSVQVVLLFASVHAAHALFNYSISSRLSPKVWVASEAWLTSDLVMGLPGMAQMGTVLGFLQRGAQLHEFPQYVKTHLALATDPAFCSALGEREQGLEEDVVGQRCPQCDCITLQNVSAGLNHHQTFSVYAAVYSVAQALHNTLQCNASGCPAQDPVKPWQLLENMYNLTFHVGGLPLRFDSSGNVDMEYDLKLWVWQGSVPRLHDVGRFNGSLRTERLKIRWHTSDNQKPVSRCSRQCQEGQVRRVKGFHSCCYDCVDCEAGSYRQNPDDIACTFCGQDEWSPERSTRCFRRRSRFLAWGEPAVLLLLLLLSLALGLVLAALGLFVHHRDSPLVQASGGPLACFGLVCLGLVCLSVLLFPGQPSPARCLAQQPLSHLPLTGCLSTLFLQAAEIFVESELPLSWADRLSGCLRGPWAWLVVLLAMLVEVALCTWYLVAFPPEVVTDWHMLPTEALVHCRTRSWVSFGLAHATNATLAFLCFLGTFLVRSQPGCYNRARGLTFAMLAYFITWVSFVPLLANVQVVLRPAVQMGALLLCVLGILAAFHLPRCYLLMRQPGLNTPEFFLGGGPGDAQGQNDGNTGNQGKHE
EXPERIMENT_NOTES: HTRF IP1 accumulation
Format: cell-based
CONDITION_PARAMETERS: agonist; Galpha16gus44 co-transfected; 0.05 M LiCl, 5 min exposure
TEST_READOUT: EC50
Give me the value, and tack the unit on after it.

Query block: Checklist item: EC50 tested on T1R2/T1R3 (human sweet taste receptor) (Homo sapiens, UniProt Q7RTX0+Q8TE23), entry OC[C@@H]1OC(O)[C@@H](O)[C@H](O)[C@H]1O (stereo partly shown) , value?
Result block: 2000 µM
